Target: recombinant human β-Amyloid Peptide (1-42) (Homo sapiens, UniProt P05067)
Construct: recombinant human β-Amyloid Peptide (1-42) from BioLegend; purchased BioLegend 843801
Sequence (P05067 672-713 limits assumed): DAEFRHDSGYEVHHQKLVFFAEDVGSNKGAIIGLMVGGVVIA
Assay: Binding assay: mass spectrometry (Q-TOF) of compounds binding to Aβ1-42
Conditions: 22 pmol/μL β-Amyloid Peptide (1-42), 1100 pmol/μL test compound; direct infusion Q-TOF MS at room temperature
measure_name: Number of Molecules Bound to Aβ1-42 (# of Molecules Bound to Aβ)
Answers are plain numbers.

Some molecules with recorded Number of Molecules Bound to Aβ1-42 (# of Molecules Bound to Aβ):
| structure_string | recorded_value |
| --- | --- |
| Nc1ccc2cc(S(=O)(=O)O)ccc2c1.O | 0 |
| Nc1cccc(S(=O)(=O)O)c1 | 0 |
| O=S(=O)(O)c1nnc[nH]1 | 3 |
| Cc1ccc2nc(-c3ccc(N)cc3)sc2c1S(=O)(=O)O | 0 |
| Cn1c(S(=O)(=O)O)nc2ccccc21 | 0 |
| O=C1Nc2ccc(S(=O)(=O)O)cc2CO1 | 0 |
| Nc1cccc2cc(S(=O)(=O)O)ccc12 | 0 |
| NC1=NN(c2ccc(Oc3ccccc3)c(S(=O)(=O)O)c2)C(=O)C1 | 0 |

Please give Number of Molecules Bound to Aβ1-42 (# of Molecules Bound to Aβ), item by item, for the list that follows.
1. Nc1ccncc1S(=O)(=O)O
2. Nc1ccc2cc(S(=O)(=O)O)ccc2c1
3. NCc1ccc(S(=O)(=O)O)cc1
4. Cn1cc(S(=O)(=O)O)cn1
5. Cn1cnnc1S(=O)(=O)O
6. C[n+]1cccc(S(=O)(=O)[O-])c1
7. Nc1nc2cc(S(=O)(=O)O)cc(N)c2o1
8. O=S(=O)(O)c1ccc(Nc2ccccc2)cc1

1: 7; 2: 0; 3: 0; 4: 1; 5: 0; 6: 8; 7: 0; 8: 0

====

Biological target: recombinant human β-Amyloid Peptide (1-42) (Homo sapiens, UniProt P05067)
Construct: recombinant human β-Amyloid Peptide (1-42) from BioLegend; purchased BioLegend 843801
Assay: Binding assay: mass spectrometry (Q-TOF) of compounds binding to Aβ1-42
Conditions: 22 pmol/μL β-Amyloid Peptide (1-42), 1100 pmol/μL test compound; direct infusion Q-TOF MS at room temperature
Please provide measured Number of Molecules Bound to Aβ1-42 (# of Molecules Bound to Aβ) for the entries that follow.

| structure_string | measurement_target | recorded_value |
| --- | --- | --- |
| Nc1nc2ccc(S(=O)(=O)O)cc2s1 | recombinant human β-Amyloid Peptide (1-42) (Homo sapiens, UniProt P05067) | 2 |

Quick batch: Number of Molecules Bound to Aβ1-42 (# of Molecules Bound to Aβ) for everything below.
1. CN(C)C(=O)[n+]1ccc(CCS(=O)(=O)[O-])cc1
2. O=S(=O)(O)c1ccc2[nH]cnc2c1
3. O=C(O)c1cc(=O)n(-c2ccc(S(=O)(=O)O)cc2)[nH]1
4. COC(=O)c1cc(OC)c(S(=O)(=O)O)s1

1: 0; 2: 0; 3: 0; 4: 0

====

Molecular target: recombinant human β-Amyloid Peptide (1-42) (Homo sapiens, UniProt P05067)
Construct: recombinant human β-Amyloid Peptide (1-42) from BioLegend; purchased BioLegend 843801
Test: Binding assay: mass spectrometry (Q-TOF) of compounds binding to Aβ1-42
Conditions: 22 pmol/μL β-Amyloid Peptide (1-42), 1100 pmol/μL test compound; direct infusion Q-TOF MS at room temperature
measure_name: Number of Molecules Bound to Aβ1-42 (# of Molecules Bound to Aβ)
Give bare numbers.

| compound | measurement_target | recorded_value |
| --- | --- | --- |
| Nc1ccc(S(=O)(=O)O)c(N)c1 [Compound 127] | recombinant human β-Amyloid Peptide (1-42) (Homo sapiens, UniProt P05067) | 0 |
| Cc1oc2ccc(-c3ccccc3)cc2[n+]1CCCS(=O)(=O)[O-] [Compound 165] | recombinant human β-Amyloid Peptide (1-42) (Homo sapiens, UniProt P05067) | 1 |
| Nc1ccc(S(=O)(=O)O)c2ccccc12 [Compound 137] | recombinant human β-Amyloid Peptide (1-42) (Homo sapiens, UniProt P05067) | 0 |
| CC[n+]1ccc(-c2cccc(S(=O)(=O)[O-])c2)o1 [Compound 153] | recombinant human β-Amyloid Peptide (1-42) (Homo sapiens, UniProt P05067) | 5 |
| Nc1ccc2c(S(=O)(=O)O)cccc2c1 [Compound 140] | recombinant human β-Amyloid Peptide (1-42) (Homo sapiens, UniProt P05067) | 0 |
| Nc1cc(S(=O)(=O)[O-])c2cccc(S(=O)(=O)[O-])c2c1.[Na+].[Na+] [Compound 167] | recombinant human β-Amyloid Peptide (1-42) (Homo sapiens, UniProt P05067) | 0 |
| Cc1cc(C)n(-c2ccc(S(=O)(=O)O)cc2)n1 [Compound 152] | recombinant human β-Amyloid Peptide (1-42) (Homo sapiens, UniProt P05067) | 1 |
| Nc1ccc2ccc(S(=O)(=O)[O-])cc2c1.[Na+] [Compound 149] | recombinant human β-Amyloid Peptide (1-42) (Homo sapiens, UniProt P05067) | 0 |

Batch: Number of Molecules Bound to Aβ1-42 (# of Molecules Bound to Aβ) for all items listed.
1. Nc1ccc(-c2ccc(N)cc2S(=O)(=O)O)c(S(=O)(=O)O)c1 [Compound 166]
2. Nc1ccc(S(=O)(=O)O)cc1 [Compound 122]

2
0

Source of measurements: patent US12036208B2
